Entries and their IC50
- System: GI-1;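 further: growth inhibition of human GI-1 cells, measured with a cell viability readout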
- TEST: cells
- Assay type: functional, cell-based, Homo sapiens
- CONDITION SET: Homo sapiens, GI-1
- Description: SANGER: Inhibition of human GI-1 cell growth in a cell viability assay.

Guide cases for IC50, answers given:
>>> result_value("O=C(c1cc(Cc2n[nH]c(=O)c3ccccc23)ccc1F)N1CCN(C(=O)C2CC2)CC1")
"> 5000 nM"
>>> result_value("CN(Cc1cnc2nc(N)nc(N)c2n1)c1ccc(C(=O)N[C@@H](CCC(=O)O)C(=O)O)cc1 [METHOTREXATE]")
"> 200 nM"
>>> result_value("CNC(=O)c1cc(Oc2ccc(NC(=O)Nc3ccc(Cl)c(C(F)(F)F)c3)cc2)ccn1")
"> 4000 nM"
>>> result_value("O=c1cc(-c2cccc3c2Sc2ccccc2S3)oc(N2CCOCC2)c1")
"> 10000 nM"
>>> result_value("CN(c1ncccc1CNc1nc(Nc2ccc3c(c2)CC(=O)N3)ncc1C(F)(F)F)S(C)(=O)=O")
"> 2560 nM"
>>> result_value("CC(=O)O[C@@]12CO[C@@H]1C[C@H](O)[C@@]1(C)C(=O)[C@H](O)C3=C(C)[C@@H](OC(=O)[C@H](O)[C@@H](NC(=O)OC(C)(C)C)c4ccccc4)C[C@@](O)([C@@H](OC(=O)c4ccccc4)[C@H]21)C3(C)C")
"0.528 nM"
>>> result_value("Cc1ccc(Nc2nccc(N(C)c3ccc4c(C)n(C)nc4c3)n2)cc1S(N)(=O)=O")
"2230 nM"

Okay, next one:
Hello, please tell me recorded IC50 for this one: `C=CCc1cccc(/C=N/NC(=O)CN2CCN(Cc3ccccc3)CC2)c1O`
> 2560 nM

###

Entries and their pIC50
- System: NCI-H460;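 further: cell viability assay scoring growth inhibition of human NCI-H460 cells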
- TEST: cells
- Type: functional, cell-based, Homo sapiens
- CONDITION SET: Homo sapiens, NCI-H460
- Description: SANGER: Inhibition of human NCI-H460 cell growth in a cell viability assay.
pIC50: −log10 of the molar value.

Guide cases for pIC50, answers given:
>>> result_value("O=C1N=C(NCc2cccs2)S/C1=C\\c1ccc2ncccc2c1")
"< 5.30"
>>> result_value("O=C(NOCC1CC1)c1ccc(F)c(F)c1Nc1ccc(I)cc1Cl [CI-1040]")
"< 5.00"
>>> result_value("Cn1cc(C2=C(c3ccc(Cl)cc3Cl)C(=O)NC2=O)c2ccccc21 [SB-216763]")
"< 5.00"

Hello, please tell me recorded pIC50 for this one: C=CCc1cccc(/C=N/NC(=O)CN2CCN(Cc3ccccc3)CC2)c1O [PAC-1]
< 5.59

Hello, please tell me recorded pIC50 for this one: CCC1=C[C@@H]2CN(C1)Cc1c([nH]c3ccccc13)[C@@](C(=O)OC)(c1cc3c(cc1OC)N(C)[C@H]1[C@@](O)(C(=O)OC)[C@H](OC(C)=O)[C@]4(CC)C=CCN5CC[C@]31[C@@H]54)C2 [VINORELBINE]
8.16

###

- System: Panc1005;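 further: growth inhibition of human PANC-10-05 cells, measured by a cell viability assay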
- TEST: cells
- Type: functional, cell-based, Homo sapiens
- CONDITION SET: Homo sapiens, Panc1005
- Description: SANGER: Inhibition of human PANC-10-05 cell growth in a cell viability assay.
Entries and their IC50

Guide cases for IC50, answers given:
>>> result_value("Nc1ccn([C@@H]2O[C@H](CO)[C@@H](O)[C@@H]2O)c(=O)n1")
"802 nM"
>>> result_value("COc1cc([C@@H]2c3cc4c(cc3[C@@H](O[C@@H]3O[C@@H]5CO[C@@H](C)O[C@H]5[C@H](O)[C@H]3O)[C@H]3COC(=O)[C@H]23)OCO4)cc(OC)c1O [ETOPOSIDE]")
"2890 nM"

Hello, please tell me recorded IC50 for this one: `C[C@]1(O)C[C@@H](c2nc(-c3ccc4ccc(-c5ccccc5)nc4c3)c3c(N)nccn32)C1`
> 2560 nM

Hello, please tell me recorded IC50 for this one: COc1cc(F)c(F)c(Nc2ccc(I)cc2F)c1NS(=O)(=O)C1(CC(O)CO)CC1 (stereo not drawn)
> 5000 nM
